// data source = PubChem BioAssay (NCI)

test system: OVCAR-5 ovarian; experiment: NCI-60 one-dose screen, 48 h (100 = growth as untreated, 0 = no growth, -100 = all killed); conditions: 10 µM
The panel holds about 83,000 compounds, 20% with a hit somewhere; the sample as a whole holds those more often. Activity calls are given as the source filed them. Rule for the calls: active = growth percent below 10; inactive = the rest.
PARAMETER_MEASURED: growth

For record NS(=O)(=O)c1ccc(N=Nc2c(O)n(CC(=O)Nc3ccccc3Br)c3ccccc23)cc1 the listed growth is 70.2% (inactive)

For record N#Cc1c(Cl)nc(SCc2ccc(F)cc2)nc1-c1ccc(F)cc1 the listed growth is 95.6% (inactive)

For record O=C(O)CCCCCCCCCCN1C(=O)/C(=C/c2cnc(-c3ccc(Cl)cc3)s2)SC1=S the listed growth is 56.9% (inactive)

For record CNC(=O)c1cc(-c2ccc(NC(=O)Nc3ccc(C)cc3)cc2)nc2cccnc12 the listed growth is 105% (inactive)

For record Cc1ccc(NC(=O)NCn2c(=O)[nH]c3ccccc3c2=O)cc1 the listed growth is 94.2% (inactive)
